Biological target: human TLR9 (Homo sapiens, UniProt Q9NR96)
Sequence (Q9NR96 26-1032): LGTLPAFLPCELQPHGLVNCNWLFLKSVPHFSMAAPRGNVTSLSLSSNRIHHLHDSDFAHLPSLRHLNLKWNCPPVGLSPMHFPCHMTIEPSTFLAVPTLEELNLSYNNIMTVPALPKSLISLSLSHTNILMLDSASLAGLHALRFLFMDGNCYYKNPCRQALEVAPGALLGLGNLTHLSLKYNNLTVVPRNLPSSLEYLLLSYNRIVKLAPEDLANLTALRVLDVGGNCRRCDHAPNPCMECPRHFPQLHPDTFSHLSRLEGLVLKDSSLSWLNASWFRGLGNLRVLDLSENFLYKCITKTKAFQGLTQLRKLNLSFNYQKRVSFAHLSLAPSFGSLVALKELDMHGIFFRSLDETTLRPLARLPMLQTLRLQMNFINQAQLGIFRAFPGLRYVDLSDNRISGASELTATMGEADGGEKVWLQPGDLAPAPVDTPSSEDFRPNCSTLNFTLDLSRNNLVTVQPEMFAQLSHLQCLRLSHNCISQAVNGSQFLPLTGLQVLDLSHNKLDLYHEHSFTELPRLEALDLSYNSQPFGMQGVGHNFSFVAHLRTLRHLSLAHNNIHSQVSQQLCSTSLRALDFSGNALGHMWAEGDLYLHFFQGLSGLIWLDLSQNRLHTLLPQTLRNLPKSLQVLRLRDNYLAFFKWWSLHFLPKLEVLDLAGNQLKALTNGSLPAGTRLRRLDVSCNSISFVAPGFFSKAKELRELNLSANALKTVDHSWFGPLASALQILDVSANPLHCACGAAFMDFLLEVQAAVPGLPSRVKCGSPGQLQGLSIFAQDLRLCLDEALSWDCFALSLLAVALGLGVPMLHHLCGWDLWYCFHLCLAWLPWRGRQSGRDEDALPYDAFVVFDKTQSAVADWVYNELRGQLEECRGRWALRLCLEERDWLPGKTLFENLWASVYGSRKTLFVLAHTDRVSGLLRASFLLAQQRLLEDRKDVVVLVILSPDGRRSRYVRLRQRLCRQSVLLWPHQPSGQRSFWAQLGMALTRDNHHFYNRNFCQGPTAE
Assay: TLR9 inhibition reporter assay (HEK-Blue cells, SEAP reporter, ODN2006 stimulation)
Details: HEK-Blue cells overexpressing human TLR9, SEAP reporter, ODN2006 5 nM
pIC50: −log10 of the molar value.
pIC50 by entry:

Here's what some known entries look like.
Looking up "Cc1cc(-c2[nH]c3ccc(C4CCN(CC(=O)N(C)C)CC4)cc3c2C(C)C)cn2nncc12" , I see its pIC50 listed as 4.30 to 6.00

Field pIC50 (entry "Cc1cc(-c2[nH]c3ccc(C4CCN(C(=O)CN(C)C(C)C)CC4)cc3c2C(C)C)cn2nnnc12" ) reads 4.30 to 6.00

GET /value?item= "Cc1c(-c2ncc3cc[nH]c3n2)[nH]c2ccc(C3CCN(C4CCN(C(C)C)CC4)CC3)cc12" &field=pIC50 returns 6.00 to 7.00

Please fill in: pIC50 reported for "CC(C)c1c(-c2ccnc3[nH]ncc23)[nH]c2ccc(C3CCN(Cc4ncn(C)n4)CC3)cc12" = 4.30 to 6.00

Memo: "CCc1c(-c2cccc3[nH]ncc23)[nH]c2ccc(C3CCN(CC(=O)N(C)C)CC3)cc12" , reported pIC50: 4.30 to 6.00

// recorded pIC50 for "CC(=O)N1CCC(N2CCC(c3ccc4[nH]c(-c5ccnc6[nH]ncc56)c(C(C)C)c4c3)CC2)CC1" : 4.30 to 6.00

Notebook: "CC(C)c1c(-c2ccnc3[nH]ncc23)[nH]c2ccc(C3CCN(C(=O)CN4CCC[C@H]4C(N)=O)CC3)cc12" , pIC50 read as 4.30 to 6.00

For this compound ( "Cc1cc(-c2[nH]c3ccc(C4CCNCC4)cc3c2C(C)C)c2[nH]ncc2n1" ), measured pIC50 is 4.30 to 6.00

***
pIC50 for "CCc1c(-c2ccnc3c(N)noc23)[nH]c2ccc(C3CCNCC3)cc12" is 6.00 to 7.00
